Values compiled from patent US6410592B1.

- system: human GlyT-1b transporter (Homo sapiens)
- Construct: expressed in transfected cells; host or cells: CHO cells, stably transfected, pcDNA3 expression construct
- Sequence (P48067 1-652 isoform P48067-3): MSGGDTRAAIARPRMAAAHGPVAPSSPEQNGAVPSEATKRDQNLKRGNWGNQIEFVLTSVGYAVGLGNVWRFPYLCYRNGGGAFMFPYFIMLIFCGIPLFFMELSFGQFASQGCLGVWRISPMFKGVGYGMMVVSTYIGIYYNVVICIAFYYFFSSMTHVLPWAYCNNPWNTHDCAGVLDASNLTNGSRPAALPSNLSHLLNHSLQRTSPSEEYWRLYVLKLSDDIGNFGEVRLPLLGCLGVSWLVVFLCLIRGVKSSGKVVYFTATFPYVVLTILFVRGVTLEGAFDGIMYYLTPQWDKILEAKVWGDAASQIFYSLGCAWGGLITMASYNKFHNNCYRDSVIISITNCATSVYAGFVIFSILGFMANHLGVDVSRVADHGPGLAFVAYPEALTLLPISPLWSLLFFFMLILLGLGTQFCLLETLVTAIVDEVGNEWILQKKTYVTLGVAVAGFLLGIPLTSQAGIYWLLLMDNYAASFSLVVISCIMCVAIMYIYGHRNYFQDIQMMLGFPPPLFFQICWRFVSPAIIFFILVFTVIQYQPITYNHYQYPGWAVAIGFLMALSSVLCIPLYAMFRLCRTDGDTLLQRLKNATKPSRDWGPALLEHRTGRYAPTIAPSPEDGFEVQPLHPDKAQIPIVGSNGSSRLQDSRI
- assay.procedure: glycine uptake in CHO cells heterologously expressing the human GlyT-1b transporter
- Assay type: cell-based
- condition.summary: [3H]glycine uptake, CHO cells stably expressing hGlyT-1b, 5 min preincubation, 10 min uptake, 37° C.; read-out: pIC50, Inhibition of glycine transport by hGlyT-1 (converted)
reported.endpoint: IC50 (µM)

>>> assay_result("CN(CC(=O)O)CC1CCc2cc(C(F)(F)F)ccc2C1c1ccc(F)cc1 (racemic) [(+/−)-8]")
0.126
>>> assay_result("CN(CC(=O)O)CC1CCc2cc(C(F)(F)F)ccc2C1c1ccc(F)cc1 (single isomer, unassigned; (-)) [Example (−)-8]")
0.0501
>>> assay_result("CN(CC(=O)O)CC1CCc2cc(Oc3ccccc3)ccc2C1c1ccccc1 (single isomer, unassigned; (-)) [Example (−)-17]")
0.1
>>> assay_result("CN(CC(=O)O)C[C@H]1CCc2cc(OCC(C)(C)C)ccc2[C@H]1c1ccccc1.Cl (racemic) [(+/−)-34, hydrochloride]")
0.251
>>> assay_result("COc1ccc2c(c1)CCC(CN(C)CC(=O)O)C2c1ccccc1 (racemic) [(+/−)-4]")
0.501
>>> assay_result("Cc1ccc2c(c1)CCC(CN(C)CC(=O)O)C2c1ccccc1 (racemic) [(+/−)-23]")
0.251
>>> assay_result("Cc1ccc2c(c1)CCC(CN(C)CC(=O)O)C2c1ccccc1 (single isomer, unassigned; (-)) [Example (−)-23]")
0.126
>>> assay_result("CN(CC(=O)O)CC1CCc2cc(Oc3ccccc3)ccc2C1c1ccccc1 (racemic) [(+/−)-17]")
0.158
>>> assay_result("CN(CC(=O)O)CC1CCc2cc(OCC(C)(C)C)ccc2C1c1ccccc1 (single isomer, unassigned; (-)) [Example (−)-34]")
0.251

====

Counter-ions that a name gives are not always drawn.
Each entry below carries its reported melting point.
reported.endpoint: melting point

>>> assay_result("COC(=O)c1ccc2c(c1)CC[C@H](CN(C)CC(=O)O)[C@@H]2c1ccccc1.Cl (relative stereo)")
"166 to 171 °C"
>>> assay_result("CN(CC(=O)O)C[C@H]1CCc2cc(OC3CCCCC3)ccc2[C@H]1c1ccccc1.Cl (relative stereo)")
"> 210 °C (dec.)"
>>> assay_result("Cc1ccc2c(c1)CCC(CN(C)CC(=O)O)C2c1ccccc1 (racemic) (as salt: salt) [(+/−)-23]")
"135 to 138 °C"
>>> assay_result("CN(CC(=O)O)C[C@H]1CCc2cc(-c3ccccc3)ccc2[C@H]1c1ccccc1.Cl (relative stereo)")
"210 to 221 °C"
>>> assay_result("CN(CC(=O)O)C[C@H]1CCc2ccccc2[C@H]1c1ccccc1.Cl (relative stereo)")
"205 to 211 °C (dec.)"
>>> assay_result("CN(CC(=O)O)CC1CCc2cc(Oc3ccccc3)ccc2C1c1ccccc1 (racemic) (as salt: salt) [(+/−)-17]")
"191 to 200 °C"
>>> assay_result("CN(CC(=O)O)CC1CCc2cc(C(F)(F)F)ccc2C1c1ccc(F)cc1 (single isomer, unassigned; (-)) (as salt: salt) [Example (−)-8]")
"161 to 164 °C"
>>> assay_result("COc1ccc2c(c1)CC[C@H](CN(C)CC(=O)O)[C@@H]2c1cccc(C)c1.O=C(O)C(F)(F)F (relative stereo)")
"96 to 106 °C"
>>> assay_result("CN(CC(=O)O)C[C@H]1CCc2cc(OCC3CC3)ccc2[C@H]1c1ccccc1.Cl (relative stereo)")
"173 to 177 °C"
>>> assay_result("CN(CC(=O)O)CC1CCc2cc(C(F)(F)F)ccc2C1c1ccc(F)cc1 (racemic) (as salt: salt) [(+/−)-8]")
"137 to 142 °C"
>>> assay_result("CN(CC(=O)O)CC1CCc2cc(OCC(C)(C)C)ccc2C1c1ccccc1 (single isomer, unassigned; (-)) (as salt: salt) [Example (−)-34]")
"168 to 170 °C"
>>> assay_result("CN(CC(=O)O)C[C@H]1CCc2cc(OCC(C)(C)C)ccc2[C@H]1c1ccccc1.Cl (racemic) [(+/−)-34]")
"151 to 155 °C"
>>> assay_result("CN(CC(=O)O)C[C@H]1CCc2cc(OCc3ccccc3)ccc2[C@H]1c1ccccc1.Cl (relative stereo)")
"200 to 210 °C"
>>> assay_result("CN(CC(=O)O)C[C@H]1CCc2cc(C#N)ccc2[C@H]1c1ccccc1.Cl (relative stereo)")
"197 °C (dec.)"
